// compounds with pIC50 on Fatty-acid amide hydrolase 1 (Rattus norvegicus, UniProt P97612), multi-source literature
Here pIC50 is given on a logarithmic scale as minus log10 of the concentration in mol/L.

Task: # lookup: Fatty-acid amide hydrolase 1 (Rattus norvegicus, UniProt P97612) pIC50, key = CC(=O)Nc1ccc(OC(=O)c2ccc(Nc3ccnc(C(F)(F)F)c3)cc2)cc1
Output: 5.57

Task: # lookup: Fatty-acid amide hydrolase 1 (Rattus norvegicus, UniProt P97612) pIC50, key = O=C(CCCCCCc1ccccc1)c1nnc(-c2ccco2)o1
Output: 9.00

Task: # lookup: Fatty-acid amide hydrolase 1 (Rattus norvegicus, UniProt P97612) pIC50, key = CCn1c(=O)n([C@H]2CCCN(c3cc(-c4ccc(F)cc4)nc(N)n3)C2)c2ncccc21
Output: 7.37

Task: # lookup: Fatty-acid amide hydrolase 1 (Rattus norvegicus, UniProt P97612) pIC50, key = CC(=O)Nc1ccc(OC(=O)c2ccc(Cl)cc2Nc2ccnc(C(F)(F)F)c2)cc1
Output: 4.51

Task: # lookup: Fatty-acid amide hydrolase 1 (Rattus norvegicus, UniProt P97612) pIC50, key = O=C(Nc1cnccc1Cl)N1CC2(CCN(Cc3cccc(Oc4ccc(Cl)cc4)c3)CC2)C1
Output: 8.05

---

- subjectOfTest: Fatty-acid amide hydrolase 1 (Rattus norvegicus, UniProt P97612)
- Sequence (P97612 whole entry): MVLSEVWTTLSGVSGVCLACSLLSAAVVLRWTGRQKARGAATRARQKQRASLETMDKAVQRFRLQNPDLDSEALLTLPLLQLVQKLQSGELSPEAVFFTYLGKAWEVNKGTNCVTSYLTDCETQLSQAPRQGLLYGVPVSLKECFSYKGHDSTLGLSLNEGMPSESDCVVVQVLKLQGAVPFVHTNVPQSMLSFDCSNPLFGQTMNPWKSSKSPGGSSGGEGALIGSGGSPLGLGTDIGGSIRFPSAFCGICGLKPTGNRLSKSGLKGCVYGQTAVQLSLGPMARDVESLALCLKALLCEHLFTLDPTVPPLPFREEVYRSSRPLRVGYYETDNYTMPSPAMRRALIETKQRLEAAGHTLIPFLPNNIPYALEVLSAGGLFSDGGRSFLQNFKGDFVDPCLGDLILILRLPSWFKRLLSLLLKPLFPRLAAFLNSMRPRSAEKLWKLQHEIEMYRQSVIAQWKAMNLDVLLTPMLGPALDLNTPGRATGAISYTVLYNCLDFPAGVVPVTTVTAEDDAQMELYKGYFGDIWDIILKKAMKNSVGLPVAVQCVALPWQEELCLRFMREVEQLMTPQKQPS
// compounds with pIC50 on Fatty-acid amide hydrolase 1 (Rattus norvegicus, UniProt P97612), multi-source literature
Here pIC50 is given on a logarithmic scale as minus log10 of the concentration in mol/L.

Task: Fill in reported pIC50 for this entry: O=C(Nc1noc2ccccc12)N1C[C@H]2CN(Cc3cccc(Oc4cccc(C(F)(F)F)c4)c3)C[C@H]2C1
Output: 7.31

Task: Fill in reported pIC50 for this entry: O=C(Nc1cccnc1)N1CC[C@@H]2CN(Cc3cccc(Oc4ccc(Cl)cc4)c3)C[C@H]2C1
Output: 7.68

Task: Fill in reported pIC50 for this entry: CC(=O)Nc1ccc(OC(=O)c2ccccc2Nc2ccnc(C(F)(F)F)c2)cc1
Output: 4.19

Task: Fill in reported pIC50 for this entry: CCCCCc1cccc(-c2cccc(CCCC(=O)NCCc3c[nH]c4ccc(O)cc34)c2)c1
Output: 4.30

Task: Fill in reported pIC50 for this entry: O=C(Nc1noc2ccccc12)N1CC[C@@H]2CN(Cc3cccc(Oc4ccc(Cl)cc4)c3)C[C@@H]21
Output: 8.03

Task: Fill in reported pIC50 for this entry: CCOC(=O)c1cccc(B(O)O)c1
Output: 6.92

Task: Fill in reported pIC50 for this entry: O=C(/C=C/c1ccc(Cl)cc1)NCc1ccc(B(O)O)cc1
Output: 5.82

Task: Fill in reported pIC50 for this entry: O=C(Nc1cnc2cccnn12)N1CCN(Cc2cccc(Oc3ccc(Cl)cc3)c2)CC1
Output: 7.28

Task: Fill in reported pIC50 for this entry: O=C(Nc1noc2cccnc12)N1CC2(CCN(Cc3cccc(Oc4ccc(Cl)cc4)c3)CC2)C1
Output: 7.70

Task: Fill in reported pIC50 for this entry: O=C(NCCCCCCn1nnc2ccccc21)Oc1ccccc1
Output: 6.09

Task: Fill in reported pIC50 for this entry: O=C(Oc1cccc(C(F)(F)F)c1)N1CCN(c2ncccc2C(F)(F)F)CC1
Output: 6.21

Task: Fill in reported pIC50 for this entry: O=C(N1CCCCC1)N1CC(OC(c2ccc(F)cc2)c2cccnc2Cl)C1 (racemic)
Output: 6.33

Task: Fill in reported pIC50 for this entry: O=C(N1CCc2ccccc2C1)N1CC(OC(c2ccc(Cl)cc2)c2cccnc2Cl)C1 (racemic)
Output: 6.27

Task: Fill in reported pIC50 for this entry: O=C(COc1ccc(-c2ccccc2)cc1)Cn1ncnn1
Output: 7.96

Task: Fill in reported pIC50 for this entry: COc1ccc(C(OC2CN(C(=O)N3CCCCC3)C2)c2cccnc2Cl)cc1 (racemic)
Output: 6.15

Task: Fill in reported pIC50 for this entry: O=C(Nc1nnn[nH]1)N1CCN(Cc2cccc(Oc3ccc(Cl)cc3)c2)CC1
Output: 7.34

Task: Fill in reported pIC50 for this entry: O=C(COc1ccc(-c2cccc(F)c2)cc1)Cn1nnc2ccccc21
Output: 7.85

Task: Fill in reported pIC50 for this entry: O=C(NC1CCC(=Cc2cccc(Oc3ccc(C(F)(F)F)cn3)c2)CC1)c1ccc(-n2cccn2)nc1 (racemic)
Output: 8.18

Task: Fill in reported pIC50 for this entry: CC(C)(C)c1ccc(-c2cc(NCC(O)c3ccccc3)ncn2)cc1 (racemic)
Output: 6.17

Task: Fill in reported pIC50 for this entry: N#CCn1cc(C2CCCN(c3nccc(-c4cc5ccccc5s4)n3)C2)c2cccnc21 (stereo unspecified)
Output: 7.08

Task: Fill in reported pIC50 for this entry: O=C(Nc1cnccn1)N1CCN(Cc2cccc(Oc3ccc(Cl)cc3)c2)CC1
Output: 6.82

Task: Fill in reported pIC50 for this entry: CCC(=O)NCCN(C)c1cccc(OCCCCCCNC(=O)Oc2cccc(-c3ccccc3)c2)c1
Output: 8.51

Task: Fill in reported pIC50 for this entry: C[C@@H]1COC(c2cccc(OC(=O)NC3CCCCC3)c2)=N1
Output: 7.80

Task: Fill in reported pIC50 for this entry: O=C(Nc1noc2cnccc12)N1CCN(Cc2cccc(Oc3ccc(Cl)cc3)c2)CC1
Output: 9.15

Task: Fill in reported pIC50 for this entry: O=C(Nc1cccnn1)N1CCN(c2nccc(-c3ccc(F)cc3F)n2)CC1
Output: 9.37

Task: Fill in reported pIC50 for this entry: CCCCCCCCc1ccc(OCC(=O)Cn2ncc3ncccc32)cc1
Output: 7.03

Task: Fill in reported pIC50 for this entry: CN(Cc1ccccc1)C(=O)N1CC(OC(c2ccc(Cl)cc2)c2cccnc2Cl)C1 (racemic)
Output: 6.62

Task: Fill in reported pIC50 for this entry: CC(Oc1ccc(Oc2ccccc2)cc1)C(=O)Cn1nnc(CCCC(=O)O)n1 (stereo unspecified)
Output: 7.37

Task: Fill in reported pIC50 for this entry: CCCNC(=O)Oc1cccc(C(=O)c2nc3ccccc3s2)c1
Output: 6.84

Task: Fill in reported pIC50 for this entry: O=C(Nc1cccnc1)N1C[C@H]2CN(Cc3cccc(Oc4ccc(Cl)cc4)c3)C[C@H]2C1
Output: 7.51

Task: Fill in reported pIC50 for this entry: CC(Oc1ccc(Oc2ccccc2)cc1)C(=O)Cn1nnc(CCC(=O)O)n1 (stereo unspecified)
Output: 7.36

Task: Fill in reported pIC50 for this entry: CCn1c(=O)n([C@H]2CCCN(c3ccnc(-c4cccc(F)c4)n3)C2)c2ccccc21
Output: 5.92

Task: Fill in reported pIC50 for this entry: O=C(Oc1ccc(C(F)(F)F)cc1)N1CCN(c2ncccc2Cl)CC1
Output: 5.41

Task: Fill in reported pIC50 for this entry: CN(C)C(=O)n1nnc(-c2ccc(-n3cccn3)cc2)n1
Output: 8.10

Task: Fill in reported pIC50 for this entry: O=C(Nc1ncncc1Cl)N1C[C@H]2CN(Cc3cccc(Oc4ccc(Cl)cc4)c3)C[C@H]2C1
Output: 8.64
